experiment: Drug level in rat brain at 30 mg/kg, po after 1 hr; assay type: ADME, organism-based; parameters: dose 30 mg/kg, route oral; details: read-out: Drug uptake
recordedEndpoint: concentration at 1 h (ng/g)

a = CCN(C)C(=O)c1cnc2c(c1)nc(NC(=O)c1cccc(C#N)c1)n2CCCOC
b = CCN(C)C(=O)c1ccc2nc(NC(=O)c3cccc(C#N)c3)n(CCCOC)c2n1
Data request: Please indicate which item has the smaller measured concentration at 1 h: a versus b Please indicate the selected item by its label.
Data returned: a

----------
biological target: Adenosine receptor A2a (Homo sapiens, UniProt P29274); experiment: Displacement of [3H]SCH58261 from human recombinant A2A receptor expressed in HEK293 cells
Sequence (P29274 whole entry): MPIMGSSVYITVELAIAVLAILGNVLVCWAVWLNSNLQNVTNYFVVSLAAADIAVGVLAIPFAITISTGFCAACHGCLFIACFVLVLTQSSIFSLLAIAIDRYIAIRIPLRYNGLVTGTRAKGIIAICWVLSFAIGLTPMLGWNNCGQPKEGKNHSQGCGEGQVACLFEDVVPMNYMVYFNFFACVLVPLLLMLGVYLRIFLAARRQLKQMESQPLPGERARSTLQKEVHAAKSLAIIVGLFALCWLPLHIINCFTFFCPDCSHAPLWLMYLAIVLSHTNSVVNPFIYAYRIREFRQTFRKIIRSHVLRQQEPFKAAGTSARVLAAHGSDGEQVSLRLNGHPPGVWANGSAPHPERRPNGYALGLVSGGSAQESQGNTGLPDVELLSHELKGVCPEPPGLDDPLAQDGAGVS
pKi: −log10 of the molar value.
recordedEndpoint: pKi

Worked set:
>  <inputSmiles>
CCOCCCn1c(NC(=O)c2cccc(C#N)c2)nc2cc(C(=O)N3CCOCC3)cnc21

>  <recordedEndpoint>
pKi

>  <quantitativeReadout>
5.96

$$$$
>  <inputSmiles>
COCCCn1c(NC(=O)c2cccc(C#N)c2)nc2cc(C(=O)N3CCCCC3)ccc21

>  <recordedEndpoint>
pKi

>  <quantitativeReadout>
7.32

$$$$
>  <inputSmiles>
COCCCn1c(N)nc2cc(C(=O)NCc3cccc(OC)c3)ccc21

>  <recordedEndpoint>
pKi

>  <quantitativeReadout>
5.17

$$$$

A = CC(=O)NCCn1c(NC(=O)c2cccc(C#N)c2)nc2cc(C(=O)N3CCCCC3)cnc21
B = CCN(C)C(=O)c1ccc2nc(NC(=O)c3cccc(C#N)c3)n(CCCOC)c2n1
C = COCCCn1c(NC(=O)c2cccc(F)c2)nc2cc(C(=O)NCc3cccc(OC)c3)ccc21
D = N#Cc1cccc(C(=O)Nc2nc3cc(C(=O)N4CCCCC4)cnc3n2Cc2ccc(F)cc2)c1
Data request: Please list these compounds in decreasing order of pKi. # the answer lists labels in the order requested
Data returned: B, A, C, D
(B: 7.92, A: 7.43, C: 6.68, D: 5.59)

----------
test: Metabolic stability in human liver microsomes assessed as compound remaining after 30 mins; format: ADME, Microsome; details: read-out: Stability
recordedEndpoint: remaining at 0.5 h (%)

Solved cases (2 shown):
>  <inputSmiles>
COCCCn1c(NC(=O)c2cccc(C#N)c2)nc2ccc(C(=O)N(C)C(C)C)nc21

>  <quantitativeReadout>
25

$$$$
>  <inputSmiles>
CCCCNC(=O)c1ccc2c(c1)nc(NC(=O)c1cccc(C#N)c1)n2CCCOC

>  <quantitativeReadout>
27

$$$$

1 = COCCCn1c(NC(=O)c2cccc(C#N)c2)nc2ccc(C(=O)N3CCCCC3)cc21
2 = CCCCNC(=O)c1cnc2c(c1)nc(NC(=O)c1cccc(C#N)c1)n2CCCOC
Data request: For 1 and 2 , which recorded remaining at 0.5 h is lower? Answer with the label corresponding to your selection.
Data returned: 1
(1: 19%, 2: 95%)

----------
target: Adenosine receptor A2a (Homo sapiens, UniProt P29274); assay: Displacement of [3H]SCH58261 from human recombinant A2A receptor expressed in HEK293 cells
pKi: −log10 of the molar value.
recordedEndpoint: pKi

>  <inputSmiles>
COCCCn1c(NC(=O)c2cccc(C#N)c2)nc2cc(C(N)=O)cnc21

>  <targetUnderTest>
Adenosine receptor A2a (Homo sapiens, UniProt P29274)

>  <recordedEndpoint>
pKi

>  <quantitativeReadout>
5.61

$$$$
>  <inputSmiles>
COCCCn1c(NC(=O)c2cccc(C#N)c2)nc2cc(C(=O)N(C)C)cnc21

>  <targetUnderTest>
Adenosine receptor A2a (Homo sapiens, UniProt P29274)

>  <recordedEndpoint>
pKi

>  <quantitativeReadout>
6.91

$$$$
>  <inputSmiles>
COCCCn1c(NC(=O)c2cccc(C#N)c2)nc2ccc(C(=O)N(C)C(C)C)nc21

>  <targetUnderTest>
Adenosine receptor A2a (Homo sapiens, UniProt P29274)

>  <recordedEndpoint>
pKi

>  <quantitativeReadout>
8.60

$$$$
>  <inputSmiles>
N#Cc1cccc(C(=O)Nc2nc3cc(C(=O)N4CCCCC4)cnc3n2Cc2cccnc2)c1

>  <targetUnderTest>
Adenosine receptor A2a (Homo sapiens, UniProt P29274)

>  <recordedEndpoint>
pKi

>  <quantitativeReadout>
6.63

$$$$
>  <inputSmiles>
CCN(C)C(=O)c1cnc2c(c1)nc(NC(=O)c1cccc(C#N)c1)n2CCCOC

>  <targetUnderTest>
Adenosine receptor A2a (Homo sapiens, UniProt P29274)

>  <recordedEndpoint>
pKi

>  <quantitativeReadout>
7.60

$$$$

P = N#Cc1cccc(C(=O)Nc2nc3cc(C(=O)N4CCCCC4)cnc3n2CCCO)c1
Q = Cn1c(NC(=O)c2cccc(C#N)c2)nc2cc(C(=O)N3CCCCC3)cnc21
Data request: Of P versus Q , which is the one with smaller reported pKi? Choose, then provide that item's label.
Data returned: Q
(Q: 6.83, P: 7.29)

P = CCCCNC(=O)c1ccc2c(c1)nc(NC(=O)c1cccc(C#N)c1)n2CCCOC
Q = COCCCn1c(NC(=O)c2cccc(C#N)c2)nc2cc(C(=O)N3CCCCC3)cnc21
Data request: Kindly identify which of P and Q has the larger recorded pKi value. Choose, then provide that item's label.
Data returned: Q
